Consider the following IC50 data for Prostaglandin E2 receptor EP3 subtype (Homo sapiens, UniProt P43115), collected from several reports.
- tested-on: Prostaglandin E2 receptor EP3 subtype (Homo sapiens, UniProt P43115)
- Sequence (P43115 whole entry): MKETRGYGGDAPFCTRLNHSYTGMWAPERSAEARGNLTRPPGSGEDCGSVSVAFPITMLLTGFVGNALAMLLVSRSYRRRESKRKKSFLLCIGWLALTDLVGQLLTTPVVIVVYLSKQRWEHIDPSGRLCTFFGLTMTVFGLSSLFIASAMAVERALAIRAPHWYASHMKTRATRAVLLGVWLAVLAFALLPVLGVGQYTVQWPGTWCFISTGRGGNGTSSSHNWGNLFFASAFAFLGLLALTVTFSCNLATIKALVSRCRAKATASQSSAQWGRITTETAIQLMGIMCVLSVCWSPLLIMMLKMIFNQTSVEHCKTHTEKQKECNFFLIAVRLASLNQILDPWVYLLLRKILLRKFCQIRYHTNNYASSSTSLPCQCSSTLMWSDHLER

GET /value?item= O=C(O)c1cccc(C2=C(c3cc(Br)ccc3OCc3ccc(Cl)c(Cl)c3)CCC2)c1 &field=IC50 returns > 3.16 µM

GET /value?item= COc1ccc(COc2ccccc2C2=C(c3cccc(C(=O)O)c3)CCC2)cc1 &field=IC50 returns > 3.16 µM

GET /value?item= C[C@H](NC(=O)c1c(C2=CCCC2)nnn1Cc1ccc(C(F)(F)F)cc1)c1ccc(C(=O)O)cc1 &field=IC50 returns > 10 µM

GET /value?item= Cc1cn(Cc2ccc(F)c(F)c2)c2c(-c3cc(NS(=O)(=O)c4cc(Cl)c(Cl)s4)nn3C)cc(F)cc12 &field=IC50 returns 1.98 µM

GET /value?item= CSc1ccc(OCc2ccccc2)c(C2=C(c3cccc(C(=O)O)c3)CCC2)c1 &field=IC50 returns > 3.16 µM

GET /value?item= Cc1cn(Cc2ccc(Cl)cc2Cl)c2c(-c3nnc(NS(=O)(=O)c4cc(F)c(F)cc4F)o3)cc(F)cc12 &field=IC50 returns 0.002 µM

GET /value?item= C[C@H](NC(=O)c1cc(Cl)ccc1Oc1ccc(F)cc1)c1ccc(C(=O)O)cc1 &field=IC50 returns > 20 µM

GET /value?item= O=C(O)c1cccc(C2=C(c3cc(Br)ccc3OCc3ccc(F)cc3)CCC2)c1 &field=IC50 returns > 3.16 µM

GET /value?item= O=C(O)c1ccc(CNC(=O)c2cc(Cl)cnc2Oc2ccc(F)cc2)cc1 &field=IC50 returns > 20 µM

GET /value?item= N#Cc1ccc(OCc2ccc(F)cc2F)c(C2=C(c3cccc(C(=O)O)c3)CCC2)c1 &field=IC50 returns > 3.16 µM

GET /value?item= Cc1cn(Cc2ccc(Cl)cc2Cl)c2c(-c3cc(NS(=O)(=O)c4ccc(Cl)c(Cl)c4)no3)cc(F)cc12 &field=IC50 returns 0.001 µM

GET /value?item= O=C(O)c1cccc(C2=C(c3ccccc3OCc3ccc(Cl)cc3F)CCC2)c1 &field=IC50 returns > 3.16 µM

GET /value?item= O=C(O)c1cccc(C2=C(c3cc(Br)ccc3OCc3ccc(Cl)cc3)CCC2)c1 &field=IC50 returns > 3.16 µM

GET /value?item= CS(=O)(=O)c1ccc(OCc2ccccc2)c(C2=C(c3cccc(C(=O)O)c3)CCC2)c1 &field=IC50 returns > 3.16 µM

GET /value?item= C[C@H](NC(=O)c1c(Nc2cccc(C(F)(F)F)c2)c2ccccc2n1C)c1ccc(C(=O)O)cc1 &field=IC50 returns > 10 µM

GET /value?item= C[C@H](NC(=O)c1cc(Cl)ccc1Oc1cccc(F)c1)c1ccc(C(=O)O)cc1 &field=IC50 returns > 20 µM

GET /value?item= Cc1cn(Cc2ccc(Cl)cc2Cl)c2c(-c3cc(NS(=O)(=O)c4cc(Cl)c(Cl)s4)no3)cc(F)cc12 &field=IC50 returns 0.005 µM

GET /value?item= Cc1cn(Cc2ccc(Cl)cc2Cl)c2c(-c3cc(NS(=O)(=O)c4cc(F)c(F)cc4F)no3)cc(F)cc12 &field=IC50 returns 0.003 µM

* * *

Consider the following IC50 data for Prostaglandin E2 receptor EP3 subtype (Homo sapiens, UniProt P43115), collected from several reports.

Result for CS(=O)(=O)c1ccc(OCc2ccc(F)cc2)c(C2=C(c3cccc(C(=O)O)c3)CCC2)c1 , tested on Prostaglandin E2 receptor EP3 subtype (Homo sapiens, UniProt P43115), IC50: > 3.16 µM

Result for O=C(O)c1cccc(C2=C(c3ccccc3OCc3ccc(Cl)c(Cl)c3)CCC2)c1 , tested on Prostaglandin E2 receptor EP3 subtype (Homo sapiens, UniProt P43115), IC50: > 3.16 µM

Result for CCCCC[C@H](O)/C=C/[C@@H]1[C@@H](C/C=C\CCC[PH](=O)O)[C@@H](O)C[C@H]1O , tested on Prostaglandin E2 receptor EP3 subtype (Homo sapiens, UniProt P43115), IC50: > 10 µM

Result for Cc1ccc(C(=O)O)c(C)c1NC(=O)c1cc(-c2cccc(Cl)c2)cc2ccccc12 , tested on Prostaglandin E2 receptor EP3 subtype (Homo sapiens, UniProt P43115), IC50: > 25 µM

Result for Cc1cn(Cc2ccc(F)cc2F)c2c(-c3cc(NS(C)(=O)=O)on3)cc(F)cc12 , tested on Prostaglandin E2 receptor EP3 subtype (Homo sapiens, UniProt P43115), IC50: 17.9 µM

Result for C[C@H](NC(=O)c1c(-c2ccccc2)nnn1CCOc1cccc(C(F)(F)F)c1)c1ccc(C(=O)O)cc1 , tested on Prostaglandin E2 receptor EP3 subtype (Homo sapiens, UniProt P43115), IC50: > 10 µM

Result for Cc1cn(Cc2ccc(Cl)cc2Cl)c2c(-c3nnc(NS(C)(=O)=O)o3)cc(F)cc12 , tested on Prostaglandin E2 receptor EP3 subtype (Homo sapiens, UniProt P43115), IC50: 2.57 µM

Result for Cc1c(CC(=O)O)c2cccnc2n1Cc1ccc(S(C)(=O)=O)cc1 , tested on Prostaglandin E2 receptor EP3 subtype (Homo sapiens, UniProt P43115), IC50: > 10 µM

Result for N#Cc1ccc(OCc2ccc(F)cc2)c(C2=C(c3cccc(C(=O)O)c3)CCC2)c1 , tested on Prostaglandin E2 receptor EP3 subtype (Homo sapiens, UniProt P43115), IC50: > 3.16 µM
